From: patent US20250206828A1

Recorded MFI for the following binders
biological target: T1, human adenosine A2A receptor (A2aR) (human, UniProt P29274 1-412); experiment: flow cytometry, HEK293-hA2aR cells, supernatant 1 ug/ml
T1 construct: Assays used HEK293 cells stably overexpressing human A2aR (BPS Bioscience 79381), human A2aR-expressing CHO cells, or endogenous A2aR on human PBMC; also called human A2aR; hA2aR
T1 sequence (P29274 whole entry): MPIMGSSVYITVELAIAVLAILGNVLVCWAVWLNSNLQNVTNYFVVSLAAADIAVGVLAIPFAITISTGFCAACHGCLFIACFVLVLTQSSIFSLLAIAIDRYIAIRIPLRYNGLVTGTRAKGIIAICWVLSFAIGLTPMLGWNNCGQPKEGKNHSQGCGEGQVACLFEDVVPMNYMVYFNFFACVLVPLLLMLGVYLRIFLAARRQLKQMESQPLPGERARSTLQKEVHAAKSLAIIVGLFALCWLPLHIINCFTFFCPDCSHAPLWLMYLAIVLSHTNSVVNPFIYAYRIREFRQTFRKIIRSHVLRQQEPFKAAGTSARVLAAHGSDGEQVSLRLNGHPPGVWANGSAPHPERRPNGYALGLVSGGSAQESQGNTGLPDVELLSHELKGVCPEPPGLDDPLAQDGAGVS
recordedEndpoint: MFI (MFI)

[
  {
    "binder": "Hu3F6-H4/Hu3F6-L7 (antibody, human IgG1, V domains shown, Human IgG1 FES (L234F, L235E, P331S) and human Ig kappa constant domains) VH: EVQLVQSGAEVKKPGASVKVSCKTSGFAFTSYWMNWVRQAPGQGLEWIGRIDPSDSEAHYHHKFWGRATLTVDKSSSTVYMELSSLRSEDTAVYYCLRSLYGKGDYWGHGTTVTVSS VL: DVVMTQTPPSLPVNPGEPASISCRSSQSLVHRNGNTYLEWYLQKPGQSPQLLIYKVSNRFSGVPDRFSGSGSGSDFTLKISWVEAEDVGVYYCYQGSHVPLTFGGGTKVEIK",
    "recordedEndpoint": "MFI",
    "reportedValue": 1880
  },
  {
    "binder": "Hu3F6-H4/Hu3F6-L4 (antibody, human IgG1, V domains shown, Human IgG1 FES (L234F, L235E, P331S) and human Ig kappa constant domains) VH: EVQLVQSGAEVKKPGASVKVSCKTSGFAFTSYWMNWVRQAPGQGLEWIGRIDPSDSEAHYHHKFWGRATLTVDKSSSTVYMELSSLRSEDTAVYYCLRSLYGKGDYWGHGTTVTVSS VL: DIVMTQTPLSLSVTPGQPASISCRSSQSLVHRNGNTYLEWYLQKPGQSPQLLIYKVSNRFSGVPDRFSGSGSGTDFTLKISRVEAEDVGVYYCYQGSHVPLTFGGGTKVEIK",
    "recordedEndpoint": "MFI",
    "reportedValue": 1450
  }
]
